Target: TBK1 (Homo sapiens)
Construct: His-tag; made in house; host or cells: Sf9 insect cells
Sequence (Q9UHD2 1-729): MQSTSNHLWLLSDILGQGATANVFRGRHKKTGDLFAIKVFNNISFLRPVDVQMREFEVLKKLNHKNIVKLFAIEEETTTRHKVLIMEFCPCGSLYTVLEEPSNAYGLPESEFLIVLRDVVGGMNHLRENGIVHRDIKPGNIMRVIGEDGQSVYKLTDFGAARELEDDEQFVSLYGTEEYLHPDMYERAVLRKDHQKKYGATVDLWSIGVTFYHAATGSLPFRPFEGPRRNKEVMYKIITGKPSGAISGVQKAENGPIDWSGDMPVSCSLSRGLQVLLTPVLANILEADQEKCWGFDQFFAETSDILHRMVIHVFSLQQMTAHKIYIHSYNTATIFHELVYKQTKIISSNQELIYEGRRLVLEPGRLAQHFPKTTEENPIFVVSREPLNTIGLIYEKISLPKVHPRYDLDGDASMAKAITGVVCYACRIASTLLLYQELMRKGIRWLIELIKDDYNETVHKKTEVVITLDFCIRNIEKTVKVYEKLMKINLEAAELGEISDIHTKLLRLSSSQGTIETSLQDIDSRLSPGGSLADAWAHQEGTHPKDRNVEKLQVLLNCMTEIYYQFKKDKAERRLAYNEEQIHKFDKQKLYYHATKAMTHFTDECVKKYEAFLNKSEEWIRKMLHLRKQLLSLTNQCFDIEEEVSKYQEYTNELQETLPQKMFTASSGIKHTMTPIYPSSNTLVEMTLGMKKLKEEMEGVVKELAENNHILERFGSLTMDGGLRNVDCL
Experiment: In-vitro TBK1 kinase assay ([γ33]ATP filter-plate)
Assay type: biochemical
Conditions: text bins; read-out: IC50 for inhibition of the kinase activity of TBK1
pIC50: −log10 of the molar value.
Assay metric: pIC50

Past entries and their recorded results:
Compound: COC1CN(C(=O)c2ccc(Nc3nccc(-c4ccc(NC(=O)C5CC5)c(C#N)c4)n3)cc2)C1
Study target: TBK1 (Homo sapiens)
pIC50: > 8.00

Compound: COc1cc(Nc2nccc(-c3ccc(O)c(C#N)c3)n2)ccc1N1CCNC(=O)C1
Study target: TBK1 (Homo sapiens)
pIC50: > 8.00

Compound: CN(C)CCOc1ccc(Nc2nccc(-c3cccc(C#N)c3)n2)cc1
Study target: TBK1 (Homo sapiens)
pIC50: 7.00 to 8.00

Shifting focus to the compound that follows.
Task: Dear colleague, I am looking for the recorded pIC50 of the following compound: CS(=O)(=O)N1CCN(c2ccc(Nc3nccc(-c4ccc(OC5CCOCC5)c(C#N)c4)n3)cc2)CC1
Result: > 8.00

* * *

System: RANTES production, human fibroblast-like synoviocytes (HFLS-RA)
Assay: Inhibition of RANTES production by HFLS-RA cells induced with Poly(I:C)
Assay type: cell-based
Settings: Poly(I:C) induction
Experimental: HFLS cells (HFLS-RA) isolated from patients with rheumatoid arthritis were obtained from Cell Applications, Inc. (San Diego, Calif.). Cells were seeded in synoviocyte growth medium (Cell Applications, Inc., San Diego, Calif.) and allowed to grow overnight. The following day, media was replaced and cells were treated with varying concentrations of selected compounds according to Formula I (e.g., Example Compound 5) (0.1% final DMSO concentration). […]
Assay metric: IC50

Task: Dear colleague, I am looking for the recorded IC50 of the following compound: N#Cc1cc(-c2ccnc(Nc3ccc(N4CCOCC4)cc3)n2)ccc1OC1CCOCC1 [Example 5]
Result: ~60 nM

* * *

Biological target: IKKε (Homo sapiens, UniProt Q14164)
Construct: His-tag; made in house; host or cells: Sf9 insect cells
Sequence (Q14164 whole entry): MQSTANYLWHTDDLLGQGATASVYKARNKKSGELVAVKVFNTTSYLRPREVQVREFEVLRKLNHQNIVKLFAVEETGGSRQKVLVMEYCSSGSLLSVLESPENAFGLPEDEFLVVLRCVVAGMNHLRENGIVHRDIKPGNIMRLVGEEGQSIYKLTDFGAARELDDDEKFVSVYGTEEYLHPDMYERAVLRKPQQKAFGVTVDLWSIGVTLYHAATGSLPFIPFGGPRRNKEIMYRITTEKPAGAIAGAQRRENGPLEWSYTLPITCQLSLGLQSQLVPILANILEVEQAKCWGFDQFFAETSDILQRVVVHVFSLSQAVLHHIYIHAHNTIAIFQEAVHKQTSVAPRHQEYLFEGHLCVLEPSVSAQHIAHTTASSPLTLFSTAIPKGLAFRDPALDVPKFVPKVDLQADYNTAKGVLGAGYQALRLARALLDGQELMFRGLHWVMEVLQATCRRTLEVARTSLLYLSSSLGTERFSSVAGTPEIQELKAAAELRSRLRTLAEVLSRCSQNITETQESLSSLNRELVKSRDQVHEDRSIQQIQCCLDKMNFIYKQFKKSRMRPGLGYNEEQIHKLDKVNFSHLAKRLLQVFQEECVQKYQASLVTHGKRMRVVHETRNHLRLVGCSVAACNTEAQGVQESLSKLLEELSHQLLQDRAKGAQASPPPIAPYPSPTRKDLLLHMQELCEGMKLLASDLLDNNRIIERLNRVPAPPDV
Experiment: In-vitro IKKε kinase assay ([γ33]ATP filter-plate)
Type: biochemical
Conditions: text bins; read-out: IC50 for inhibition of the kinase activity of IKKε
pIC50: −log10 of the molar value.
The reader will find reported pIC50 values listed item by item below.

Past entries and their recorded results:
Compound: N#Cc1cc(-c2ccnc(Nc3ccc(N4CCOCC4)cc3)n2)ccc1OCCNC(=O)CCO
Assay metric: pIC50
Endpoint result: 6.30 to 7.30

Compound: COc1cc(Nc2nccc(-c3ccc(OC4CCOCC4)c(C#N)c3)n2)ccc1C(=O)NCc1cccnc1
Assay metric: pIC50
Endpoint result: > 8.30

Compound: N#Cc1cc(-c2ccnc(Nc3ccc(N4CCOCC4)cc3)n2)ccc1OCC1CCNCC1
Assay metric: pIC50
Endpoint result: > 8.30

Compound: COc1ccc(-c2ccnc(Nc3ccc(N4CCOCC4)cc3)n2)cc1C#N
Assay metric: pIC50
Endpoint result: 7.30 to 8.30

Compound: CCN(CC)CCN(CC)C(=O)Cc1ccc(Nc2nccc(-c3ccc(NC(=O)C(C)C)c(C#N)c3)n2)cc1
Assay metric: pIC50
Endpoint result: 7.30 to 8.30

Compound: N#Cc1cc(-c2ccnc(Nc3ccc(N4CCOCC4)cc3)n2)ccc1OCC1CN(C(=O)CO)C1
Assay metric: pIC50
Endpoint result: 7.30 to 8.30

Task: Dear colleague, I am looking for the recorded pIC50 of the following compound: CC(Oc1ccc(-c2ccnc(Nc3ccc(N4CCOCC4)cc3)n2)cc1C#N)C(=O)O (centres unmarked)
Result: 6.30 to 7.30

Task: Dear colleague, I am looking for the recorded pIC50 of the following compound: N#Cc1cc(-c2ccnc(Nc3ccc(N4CCOCC4)cc3)n2)ccc1OC1CCN(C(=O)CCO)CC1
Result: 7.30 to 8.30

* * *

Target: IKKε (Homo sapiens)
Construct: His-tag; made in house; host or cells: Sf9 insect cells
Experiment: In-vitro IKKε kinase assay ([γ33]ATP filter-plate)
Type: biochemical
Conditions: text bins; read-out: IC50 for inhibition of the kinase activity of IKKε
Assay metric: IC50

Compound: N#Cc1cc(-c2ccnc(Nc3cccc(CS(=O)(=O)NCCO)c3)n2)ccc1NC(=O)C1CC1 [compound 627]
Assay metric: IC50
Endpoint result: < 5 nM

Compound: N#Cc1cc(-c2ccnc(Nc3ccc(F)c(OCCN)c3)n2)ccc1OC1CCOCC1 [compound 640]
Assay metric: IC50
Endpoint result: < 5 nM

Compound: CN1CCN(c2ccc(Nc3nccc(-c4ccc(OC5CCN(C(=O)CO)C5)c(C#N)c4)n3)cc2)CC1 (stereo not shown) [Example 254]
Assay metric: IC50
Endpoint result: 5 to 50 nM

Task: Dear colleague, I am looking for the recorded IC50 of the following compound: COc1cc(Nc2nccc(-c3ccc(OC4CCOCC4)c(C#N)c3)n2)ccc1CN1CC(OC)C1 [compound 482]
Result: < 5 nM

* * *

The reader will find reported IC50 values listed item by item below.
Target: IKKε (Homo sapiens)
Construct: His-tag; made in house; host or cells: Sf9 insect cells
Test: In-vitro IKKε kinase assay ([γ33]ATP filter-plate)
Type: biochemical
Conditions: Table 3; read-out: IKKε IC50
Please state the figure in nM; there is no need to write the unit.

Past entries and their recorded results:
Compound: N#Cc1cc(-c2ccnc(Nc3ccc(CO)cc3)n2)ccc1OC1CCOCC1
Study target: IKKε (Homo sapiens)
IC50, nM: 5.1
//
Compound: N#Cc1cc(-c2ccnc(Nc3cccc(NC(=O)N4CCC(O)C4)c3)n2)ccc1OC1CCOCC1 (stereo not shown)
Study target: IKKε (Homo sapiens)
IC50, nM: 0.3
//
Compound: N#Cc1cc(-c2ccnc(Nc3cccc(NCCN4CCOCC4)c3)n2)ccc1OC1CCOCC1
Study target: IKKε (Homo sapiens)
IC50, nM: 1.3
//
Compound: COc1cc(Nc2nccc(-c3ccc(O[C@@H]4CCN(C(=O)CO)C4)c(C#N)c3)n2)ccc1N1CCOCC1
Study target: IKKε (Homo sapiens)
IC50, nM: 0.3
//
Compound: N#Cc1cc(-c2ccnc(Nc3cccc(CS(=O)(=O)NCCO)c3)n2)ccc1OC1CCOCC1
Study target: IKKε (Homo sapiens)
IC50, nM: 1.2
//
Compound: N#Cc1cc(-c2ccnc(Nc3cccc(NC(=O)N4CCOCC4)c3)n2)ccc1OC1CCOCC1
Study target: IKKε (Homo sapiens)
IC50, nM: 0.7

Task: Dear colleague, I am looking for the recorded IC50 of the following compound: N#Cc1cc(-c2ccnc(Nc3ccc(Cn4ccnc4)cc3)n2)ccc1OC1CCOCC1
Result: 2

Task: Dear colleague, I am looking for the recorded IC50 of the following compound: CN(C)CCCNS(=O)(=O)c1ccc(Nc2nccc(-c3ccc(OC4CCOCC4)c(C#N)c3)n2)cc1
Result: 2.8

Task: Dear colleague, I am looking for the recorded IC50 of the following compound: COCCOC1CN(c2cc(Nc3nccc(-c4ccc(OC5CCOCC5)c(C#N)c4)n3)ccc2C)C1
Result: 0.7

Task: Dear colleague, I am looking for the recorded IC50 of the following compound: N#Cc1cc(-c2ccnc(Nc3cccc(N4CCOCC4)c3)n2)ccc1OC1CCOCC1
Result: 0.4

Task: Dear colleague, I am looking for the recorded IC50 of the following compound: CC(C)COc1ccc(-c2ccnc(Nc3cccc(CS(=O)(=O)NCCO)c3)n2)cc1C#N
Result: 0.8

Task: Dear colleague, I am looking for the recorded IC50 of the following compound: Cc1ccc(Nc2nccc(-c3ccc(OC4CCOCC4)c(C#N)c3)n2)cc1N1CCOCC1
Result: 0.3
